# SYSTEM UNDER TEST: SERT (Rattus norvegicus)
# Construct: rat striatum was the source for DAT, and cerebral cortex for SERT and NET; from tissue; host or cells: rat cerebral cortex
# Sequence (P31652 whole entry): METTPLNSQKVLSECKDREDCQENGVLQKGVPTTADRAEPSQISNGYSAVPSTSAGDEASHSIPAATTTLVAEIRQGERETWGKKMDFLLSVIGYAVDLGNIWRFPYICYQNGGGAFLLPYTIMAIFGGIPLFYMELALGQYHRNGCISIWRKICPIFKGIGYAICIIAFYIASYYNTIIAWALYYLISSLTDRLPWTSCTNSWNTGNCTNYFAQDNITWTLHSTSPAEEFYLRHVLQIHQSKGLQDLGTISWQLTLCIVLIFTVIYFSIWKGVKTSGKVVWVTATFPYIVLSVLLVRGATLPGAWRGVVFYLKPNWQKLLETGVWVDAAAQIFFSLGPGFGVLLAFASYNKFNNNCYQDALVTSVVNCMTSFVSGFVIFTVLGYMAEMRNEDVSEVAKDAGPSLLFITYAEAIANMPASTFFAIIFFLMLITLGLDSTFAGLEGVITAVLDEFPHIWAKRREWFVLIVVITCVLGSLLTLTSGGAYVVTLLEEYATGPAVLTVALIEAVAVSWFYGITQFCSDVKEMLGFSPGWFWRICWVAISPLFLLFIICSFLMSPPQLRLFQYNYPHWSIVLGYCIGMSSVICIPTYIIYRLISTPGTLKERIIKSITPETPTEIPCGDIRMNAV
# METHOD SUMMARY: SERT uptake inhibition, [3H]5-HT
# Format: biochemical
# TEST SETTINGS: Table 4; rat brain; read-out: SERT uptake, IC50 [3H]5-HT
pIC50: −log10 of the molar value.
Form field: pIC50 (one value per entry).

COMPOUND | SYSTEM UNDER TEST | pIC50
O[C@@H]1C[C@@H](C(c2ccccc2)c2ccccc2)OC[C@H]1NCCc1ccc(F)cc1 [(−)-29c] | SERT (Rattus norvegicus) | 5.45
O[C@H]1C[C@H](C(c2ccccc2)c2ccccc2)OC[C@@H]1NCc1ccccc1 [(+)-29d] | SERT (Rattus norvegicus) | 5.21
COc1cc(CN[C@@H]2CO[C@H](C(c3ccccc3)c3ccccc3)C[C@H]2O)cc(OC)c1 [(−)-29f] | SERT (Rattus norvegicus) | 7.60
Oc1ccc(CN[C@H]2CC[C@@H](C(c3ccccc3)c3ccccc3)OC2)cc1 [(−)-37a] | SERT (Rattus norvegicus) | 7.38
COc1ccc(CN[C@@H]2CO[C@H](C(c3ccccc3)c3ccccc3)C[C@H]2O)c(OC)c1 [(−)-29e] | SERT (Rattus norvegicus) | 7.62
O[C@H]1C[C@H](C(c2ccccc2)c2ccccc2)OC[C@@H]1NCCc1ccc(F)cc1 [(+)-29c] | SERT (Rattus norvegicus) | 5.53
Oc1ccc(CN[C@@H]2CC[C@H](C(c3ccccc3)c3ccccc3)OC2)cc1 [(+)-37a] | SERT (Rattus norvegicus) | 6.68
O[C@@H]1CO[C@H](C(c2ccccc2)c2ccccc2)C[C@H]1NCc1ccccc1 [(−)-29h] | SERT (Rattus norvegicus) | 5.00

Sourced from patent US8017791B2
